Values were extracted from BigSolDB 2.1.

# measurement-setup: in ethanol, 303.15 K
reported-endpoint: solubility (mole fraction)

>  <query-smiles>
Nc1ccc(S(=O)(=O)Nc2ncccn2)cc1

>  <reported-endpoint>
solubility (mole fraction)

>  <data-value>
9.46e-06

$$$$

* * *

# measurement-setup: in water, 303.15 K

>  <query-smiles>
Nc1ccc(S(=O)(=O)Nc2ncccn2)cc1

>  <solubility (mole fraction)>
6.49e-07

$$$$
